# System: Wolbachia pipientis
# Assay comment: Anti-Wolbachia Cell-Based Screen
# Format: functional
# Set-up: scale not given: in the data most compounds retested in dose-response had high values
# Condition label: 5 µM
The campaign covered roughly 48,000 compounds. About 13,000 (27%) showed an effect of 50% or more. This is one part of the list.
Recorded Percent Effect for the following compounds

Compound	Assayed system	Percent Effect [%]
CC(=O)N1N=C(c2ccco2)OC1C(=O)N(CC(C)C)CC(C)C (stereo unspecified)	Wolbachia pipientis	91.49
CCNC(=O)C1CCN(c2nc(-c3ccco3)nc3c2CCNCC3)C1 (stereo unspecified)	Wolbachia pipientis	5.847
Cc1nc(C)n(Cc2cccc(NC3CCN(C)C3=O)c2)n1 (stereo unspecified)	Wolbachia pipientis	-8.315
CCCNC(=O)CCNC(=O)Cc1nc(-c2ccco2)oc1C	Wolbachia pipientis	-2.58
CC(C)CN(Cc1cnn(C)c1)C(=O)C1COc2ccccc2C1 (stereo unspecified)	Wolbachia pipientis	-20.05
CC(=O)N1N=C(c2ccco2)OC1C(=O)NCC(C)C (stereo unspecified)	Wolbachia pipientis	108.9
